Item-by-item account of TGI
# Tested on: M14 melanoma
# PROTOCOL_SUMMARY: NCI tumour cell line growth inhibition, 48 h

| COMPOUND | QUALIFIER_SYMBOL | TGI, µM |
| --- | --- | --- |
| CCCCCCCCC(O)C#CC(N)=O (stereo not given) | = | 25.6 |
| CC(C)(C)c1cc(/C=C/C(=O)CC(=O)/C=C/c2cc(C(C)(C)C)c(O)c(C(C)(C)C)c2)cc(C(C)(C)C)c1O | > | 50 |
| CN(C)CCNC(=O)c1cccc2[nH]c(-c3ccncc3)nc12 | = | 3.39 |
| CCOC(=O)Cn1nnc2cc(Nc3nc4ccccc4nc3C(=O)OCC)ccc21 | > | 100 |
| COC(=O)C(Cc1ccccc1)NC(=O)c1ccc(CNC(=S)NCc2cccc(CNC(=S)NCc3ccccc3)c2)cc1 (stereo not given) | > | 62.5 |

###

# System: UO-31 renal
# PROTOCOL_SUMMARY: NCI tumour cell line growth inhibition, 48 h
Reported GI50 values for a set of molecules

| MOLECULE | SYSTEM_UNDER_TEST | GI50 |
| --- | --- | --- |
| O=C1c2cc(-c3ccccc3)ccc2-c2c1c1ccc([N+](=O)[O-])cc1c(=O)n2CCCBr | UO-31 renal | > 50 µM |
| Cc1ccc(C(=O)/C(=C\c2ccc([N+](=O)[O-])cc2)S(=O)Cc2ccc(F)cc2)cc1 (stereo not drawn) | UO-31 renal | 1.36 µM |
| O=C(/C=C/c1cccc([N+](=O)[O-])c1)c1ccc(O)c(CN2CCN(c3cc4c(cc3F)c(=O)c(C(=O)O)cn4C3CC3)CC2)c1 | UO-31 renal | 1.29 µM |
| CC(=O)OC(C)(C)/C=C/C(=O)[C@](C)(O)[C@H]1[C@H](O)C[C@@]2(C)[C@@H]3CC=C4[C@@H](C[C@H](O)C(=O)C4(C)C)[C@]3(CO)C(=O)C[C@]12C | UO-31 renal | 0.251 µM |
| CCOc1ccc2nc(-c3cccc(OCC(=O)NC(C)C)c3)nc(Nc3ccc(-c4cn[nH]c4)cc3)c2c1 | UO-31 renal | 0.344 µM |
| CN1C(=O)C(=Cc2cn(Cc3ccccc3)c3ccccc23)C(=O)N(C)C1=O | UO-31 renal | > 38.8 µM |
| COc1ccc([I+]c2ccccc2)cc1 | UO-31 renal | 26.8 µM |
| Cn1c(/C=C(\C#N)c2cccc(C(F)(F)F)c2)nc2c(N3CCOCC3)nc(Cl)nc21 | UO-31 renal | 0.422 µM |
| C[C@]1(C(=O)O)N[C@H](C(=O)O)CS1 | UO-31 renal | > 1000 µM |
| OC(C1CO1)C(O)C1CO1 (stereo not drawn) | UO-31 renal | 37 µM |
| O=C(O)c1ccc2c3c(ncnc13)-c1ccccc1C2=O | UO-31 renal | 15.8 µM |
| O=C(O)CC(NC(=O)CP(=O)(O)O)C(=O)O.[NH-]C1CCCCC1[NH-].[Pt+2] (stereo not drawn) | UO-31 renal | 41.3 µM |
| COc1ccc(C2=Nc3c/c(=C\c4c(O)[nH]c5ccc(Cl)cc45)ccc3=N2)cc1 | UO-31 renal | 1.46 µM |

###

# Test system: SNB-19 CNS
# PROTOCOL_SUMMARY: NCI tumour cell line growth inhibition, 48 h; in the data active = GI50 below about 0.43 µM; inactive = the rest
Outcomes: true (active), false (inactive)

| MOLECULE | GROUP_LABEL |
| --- | --- |
| O=C(O)c1ccc2c3c(ncnc13)-c1ccccc1C2=O | false |
| COc1ccc(C2=Nc3c/c(=C\c4c(O)[nH]c5ccc(Cl)cc45)ccc3=N2)cc1 | false |
| COc1ccc(-c2cn(-c3cccc(C(=O)/C=C/c4ccc(O)c(OC)c4)c3)c(=O)[nH]2)cc1 | false |
| OC(C1CO1)C(O)C1CO1 (stereo unspecified) | false |
| O=C1NC(=O)C(c2ccc(Cl)cc2)=C1Nc1ccc(Cl)c(C(=O)O)c1 | false |
| CCOC(=O)NC1=C(N2CC2)C(=O)C(NC(=O)OCC)=C(N2CC2)C1=O | false |
| COc1cc(-c2csc(NC(=O)Nc3cc(C(F)(F)F)cc(C(F)(F)F)c3)n2)cc(OC)c1OC | false |
| C[C@@H](NC(=O)[C@@H](CC(=O)N1CCC(N2CCCCC2)CC1)N1C(=O)[C@@H](N2C(=O)OC[C@@H]2c2ccccc2)[C@H]1/C=C/c1cccc(Cl)c1)c1ccccc1 | false |
| C=C1C(=O)O[C@@H]2OC3(C)CCC4C(C)CCC1C42OO3 (stereo partly specified) | false |
| COc1ccc([I+]c2ccccc2)cc1 | false |
| CN[C@@H]1C[C@H]2O[C@@](C)([C@@H]1OC)n1c3ccccc3c3c4c(c5c6ccccc6n2c5c31)C(=O)N[C@H]4O | true |

###

Quick list: TGI per entry.
# Tested on: RPMI-8226 leukemia
# PROTOCOL_SUMMARY: NCI tumour cell line growth inhibition, 48 h

| COMPOUND | QUALIFIER_SYMBOL | TGI [µM] |
| --- | --- | --- |
| CC(=O)Nc1ccc(-c2nnc(SCC(=O)Nc3cccc([N+](=O)[O-])c3)o2)cc1 | = | 75.8 |
| COc1ccc2nc3cc([N+](=O)[O-])ccc3c(NCCCN(CCO)CCO)c2c1 | = | 8.9 |
| C/C(CC(=O)Nc1ccc(Cl)cc1)=N\NC(=O)C[n+]1ccccc1 | > | 100 |
| COc1cc(F)cc([C@@H](CO)NC(=O)[C@@H](C)N2Cc3ccc(-c4nc(NC5CCOCC5)ncc4Cl)cc3C2=O)c1 | = | 38.1 |
| C/C(=N\NC(=O)c1cccnc1)c1cccc(/C(C)=N/NC(=O)c2cccnc2)n1.CC(=O)[O-].CC(=O)[O-].[Zn+2] | > | 100 |
| COc1cc([C@H]2c3cc4c(cc3[C@H](NCc3ccc([N+](=O)[O-])cc3)C3COC(=O)[C@H]32)OCO4)cc(OC)c1O (some centres not stated) | > | 25.6 |
| O=c1oc(-c2ccccc2)cc2cccc(O)c12 | > | 100 |

###

# System: SN12C renal
# PROTOCOL_SUMMARY: NCI tumour cell line growth inhibition, 48 h

| COMPOUND | TGI |
| --- | --- |
| COc1ccc2nc(NCN3C(=O)c4ccccc4C3=O)sc2c1 | > 100 µM |
| CN(C)C(=S)/N=c1\ss/c(=N\C(=S)N(C)C)n1-c1ccc(Cl)cc1 | > 100 µM |
| COC(=O)C(Cc1ccccc1)NC(=O)c1ccc(CNC(=S)NCc2cccc(CNC(=S)NCc3ccccc3)c2)cc1 (stereo not drawn) | > 62.5 µM |

###

# Tested on: MCF7 breast
# PROTOCOL_SUMMARY: NCI tumour cell line growth inhibition, 48 h; in the data active = GI50 below about 0.43 µM; inactive = the rest
Labels: T for active, F for inactive

| STRUCTURE_SMILES | GROUP_LABEL |
| --- | --- |
| Cc1cc([N+](=O)[O-])ccc1NS(=O)(=O)c1cc(Cl)ccc1Cl | F |
| CC1(C)N=C(N)N=C(N)N1c1ccc(CCc2ccc(Cl)cc2S(=O)(=O)F)c(Cl)c1 | F |
| C[n+]1c2ccccc2c(Nc2ccc(NS(=O)(=O)CCCCN=C(N)N)cc2)c2ccc(N)cc21 | T |
| c1cncc(-c2nc3ccccc3s2)c1 | F |
| CN1CCN(C(=O)c2c(NC(=O)NS(=O)(=O)c3ccccc3)sc3c2CCCCC3)CC1 | F |
| CC1(C)CCC[C@]2(C)c3cc(O)ccc3CC[C@@H]12 | F |
| COc1ccc2c3c(c4ccccc4cc13)C(=O)N(CCN(C)CCN)C2=O | T |
| COc1ccc(-c2cn(-c3cccc(C(=O)/C=C/c4ccc(O)c(OC)c4)c3)c(=O)[nH]2)cc1 | F |

###

# Test system: SNB-78 CNS
# PROTOCOL_SUMMARY: NCI tumour cell line growth inhibition, 48 h
MEASURED_PARAMETER: TGI

| COMPOUND | MEASURED_PARAMETER | VALUE_MEASURED |
| --- | --- | --- |
| CCOC(=O)c1cc2c(cn1)[nH]c1cccc(N)c12 | TGI | > 100 µM |
| COC(=O)[C@@]1(O)CC(C)C=C1C=O (stereo partly drawn) | TGI | > 100 µM |
| Cc1ccc(-c2cc(=O)c3cc(C)c(C)c(C(=O)O)c3o2)cc1 | TGI | > 100 µM |
| C=CC[N+](CCO)(CCO)CCCCCCCCCCCCCCCCCC | TGI | 12.6 µM |
| NC(CC(=O)Nc1ccc(Cl)cc1)=Nc1ccccc1 | TGI | > 100 µM |
| CN(C)C(=S)/N=c1\ss/c(=N\C(=S)N(C)C)n1-c1ccc(Cl)cc1 | TGI | > 100 µM |
| CCCCCCCCC(O)C#CC(N)=O (stereo not drawn) | TGI | 57.5 µM |
| O=C1OC(c2ccc(Cl)cc2)(c2ccc(Cl)cc2)c2c1ccc1ccccc21 | TGI | > 100 µM |

Values from PubChem BioAssay (NCI)
